assay: Selectivity index, ratio of CC50 for human TZM-b1 cells to EC50 for HIV1; format: toxicity, cell-based; conditions: read-out: Ratio CC50/EC50
attributeMeasured: selectivity ratio

[
  {
    "compoundString": "Cc1cc(C)c(Nc2ccnc(Nc3ccc(C#N)cc3)n2)c(C)c1",
    "relation": "=",
    "recordedNumber": 1440
  },
  {
    "compoundString": "Cc1cc(C)c(Nc2nc(Nc3ccc(C#N)cc3)nc(Nc3ccc(Nc4nc(Nc5ccc(C#N)cc5)nc(Nc5c(C)cc(C)cc5C)n4)cc3)n2)c(C)c1",
    "relation": ">",
    "recordedNumber": 588
  }
]

Origin of values: ChEMBL document CHEMBL2203050
